system: RXF 393 renal; assay: NCI tumour cell line growth inhibition, 48 h
reported-endpoint: TGI

The measured TGI associated with CN(C)CC1CN(C(=O)Nc2ccccc2)C(=N)O1 (stereo not drawn) reads > 100 µM

Notebook: CC1(CC(=O)OC(C#C[Si](C)(C)C)Cc2ccccc2)OCCO1 (stereo not drawn) , TGI read as > 100 µM

Item: Cc1cccc(C(O)c2ccccn2)c1O (stereo not drawn) | TGI: > 100 µM

* * *

tested on: SK-MEL-2 melanoma; assay: NCI tumour cell line growth inhibition, 48 h
reported-endpoint: TGI

Below are worked cases with known answers.
> print(dat)
                                   compound  reported.endpoint  data.value
1  COC(=O)CCC(=O)C(C#N)c1ccc(Cl)cc1Cl (configuration not stated)                TGI    > 100 µM
2  CCC(CCCCC1CC[C@H]2CC(=O)C[C@@H]12)OC (some centres not stated)                TGI    > 100 µM
3  O=C1CC23CC(=O)CC2(C1)c1ccccc1C3=O (configuration not stated)                TGI    > 100 µM
4  COc1cc(CNC(=O)CCCCCCCCCCSSCCCCCCCCCCC(=O)NCc2ccc(O)c(OC)c2)ccc1O                TGI     > 10 µM
5  CC1(CC(=O)OC(C#C[Si](C)(C)C)Cc2ccccc2)OCCO1 (configuration not stated)                TGI    > 100 µM

// recorded TGI for CC1CC(=O)NC2CC1C2(C)C (configuration not stated) : > 100 µM

# TGI (compound: O=C1CCC2(c3ccc(F)cc3)Nc3ncncc3N12 (configuration not stated) ) is > 10 µM

* * *

Recorded TGI for the following compounds
test system: MDA-MB-435; test: NCI tumour cell line growth inhibition, 48 h

Illustrative cases are given below, each with its answer.
> print(dat)
                                   compound  measurement.target  reported.endpoint  data.value
1               O=c1[nH][nH]c(=S)c(=O)[nH]1          MDA-MB-435                TGI    > 100 µM
2  Cc1ccc(C(=O)Nc2ccc(CP(=O)(O)O)cc2)cc1NC(=O)Nc1cc(C(=O)Nc2ccc(CP(=O)(O)O)cc2)ccc1C          MDA-MB-435                TGI    > 100 µM
3  CCC(CCCCC1CC[C@H]2CC(=O)C[C@@H]12)OC (stereo partly specified)          MDA-MB-435                TGI    > 100 µM
4  CN(C)C1COC2Cc3ccccc3C1O2 (stereo unspecified)          MDA-MB-435                TGI    > 100 µM
5  Nc1nn(C(=O)Nc2ccc(Cc3ccccc3)cc2)c2ccccc12          MDA-MB-435                TGI    > 100 µM

Next up:
TGI on MDA-MB-435 for Cn1cc(C2=C(c3cccc(NCC(O)CO)c3)C(=O)NC2=O)c2cc(Cl)ccc21 (stereo unspecified) is > 20.6 µM

* * *

test system: HT29 colon; experiment: NCI tumour cell line growth inhibition, 48 h
Below, each entry is listed alongside its reported TGI.

> print(dat)
                              record.smiles  data.value
1  Nc1nn(C(=O)Nc2ccc(Cc3ccccc3)cc2)c2ccccc12     17.6 µM
2  N=c1c2c(=O)n3c(nc2nc2sc4ccc(Cl)cc4n12)-c1ccccc1Sc1ccccc1-3       18 µM
3  O=CNc1ccc2c(c1)Cc1cc([N+](=O)[O-])ccc1-2    > 100 µM

# input for lookup
For this compound ( "N=C(N)c1ccc(-c2ccc(-c3ccc(C(=N)N)cc3)o2)cc1" ), measured TGI is > 100 µM

* * *

tested on: HL-60(TB) leukemia; experiment: NCI tumour cell line growth inhibition, 48 h; in the data active means GI50 below about 0.43 µM; inactive means the rest
Parameter call: string, one of active, inactive

compound	class-name
O=C(Nc1ncc(Cc2ccc(Cl)cc2)s1)c1ccc2c(c1)OCCO2	active
COc1ccc2cc(C(=O)/C=C/c3ccccc3OC)ccc2c1	inactive
CC(=O)O[C@@H]1CC(=O)O[C@@H]2C[C@@H](CC/C(Cl)=C/C/C=C\1C)O[C@@H]2CO	inactive

Next up:
For "CC(=O)/C=C/c1ccc(N(C)Cc2ccc(C(C)(C)C)cc2)cc1" , which call appears in the assay record?
inactive

* * *

tested on: LOX IMVI melanoma; test: NCI tumour cell line growth inhibition, 48 h
reported-endpoint: TGI

Example entries begin here.
> print(dat)
                                   compound  reported.endpoint  data.value
1  CC1=NN(c2ccccc2)C(=O)C1C(=O)C(=O)Nc1ccc(C)cc1C (configuration not stated)                TGI    > 100 µM
2  CCC(CCCCC1CC[C@H]2CC(=O)C[C@@H]12)OC (some centres not stated)                TGI    > 100 µM
3           O=C(O)C#Cc1ccc([N+](=O)[O-])cc1                TGI    > 100 µM
4  COc1ccc(-c2oncc2-c2cc(OC)c3c(c2)OCO3)cc1                TGI   > 60.1 µM
5  CN(C)CC1CN(C(=O)Nc2ccccc2)C(=N)O1 (configuration not stated)                TGI    > 100 µM

The compound "COc1cc(CNC(=O)CCCCCCCCCCSSCCCCCCCCCCC(=O)NCc2ccc(O)c(OC)c2)ccc1O" showed TGI equal to > 10 µM

Measured TGI of CN(C)C1COC2Cc3ccccc3C1O2 (configuration not stated) : > 100 µM

* * *

system: NCI-H226 lung; experiment: NCI tumour cell line growth inhibition, 48 h
reported-endpoint: TGI

Example results:
> print(dat)
                                   compound  measurement.target  data.value
1  Cc1ccc2nc(Cl)c(/C=N/N3C(=O)/C(=C/Cc4ccco4)N=C3c3ccccc3)cc2c1       NCI-H226 lung    > 100 µM
2  Cn1c2ccccc2c(=S)c2cc(NC(=O)CCCCC(=O)Nc3ccc4c(c3)c(=S)c3ccccc3n4C)ccc21       NCI-H226 lung    > 100 µM
3  Cc1cccc(C(O)c2ccccn2)c1O (stereo not given)       NCI-H226 lung    > 100 µM
4          O=c1nc2[nH]nc(-c3ccccc3)c2n[nH]1       NCI-H226 lung    > 100 µM

Now for another entry.
Entry O=C1CCC2(c3ccc(F)cc3)Nc3ncncc3N12 (stereo not given) , TGI reported as > 10 µM

* * *

system: NCI-H23 lung; experiment: NCI tumour cell line growth inhibition, 48 h
TGI values, listed per item

Some compounds with known TGI results, for comparison:
> print(dat)
                                   compound  data.value
1  CCCN1CN(C(C(=O)N[C@@H]2C(=O)N3C(C(=O)O)=C(C)CSC23)c2ccccc2)CSC1=S (some centres not stated)    > 100 µM
2  CCCC[Si](CCCC)(CCCC)O[C@@H](/C=C/C(=O)OCC)[C@H](Cc1ccccc1)O[Si](CCCC)(CCCC)CCCC    > 100 µM
3  CC1=NN(c2ccccc2)C(=O)C1C(=O)C(=O)Nc1ccc(C)cc1C (configuration not stated)    > 100 µM
4  COc1ccc(N=C2C(=Nc3ccc(OC)cc3)N(c3ccccc3[N+](=O)[O-])C(=S)N2c2ccc(OC)cc2)cc1    > 100 µM

The compound listed as "O=C(O)CCCC#CCCCC(=O)O" has a reported TGI of > 100 µM

The recorded TGI for "Clc1ccc(CCn2cncn2)c(Cl)c1" is > 100 µM

TGI reading for "Cc1ccc(S(=O)(=O)NC(=O)Nc2nc(Cl)cc(Cl)n2)cc1" : > 100 µM

Quick note, TGI for "CC(=O)O[C@@H]1CC(=O)O[C@@H]2C[C@@H](CC/C(Cl)=C/C/C=C\1C)O[C@@H]2CO" landed at > 25 µM

So, CN(C)C1COC2Cc3ccccc3C1O2 (configuration not stated) ? Its TGI was > 100 µM

Looking up "CN(C)N1C(=O)CC2(CCN(CCCC(=O)c3ccc(F)cc3)CC2)C1=O" , I see its TGI listed as > 100 µM

Value of measured TGI for the entry O=C1CCC2(c3ccc(F)cc3)Nc3ncncc3N12 (configuration not stated) : > 10 µM

Please fill in: TGI reported for "CO/N=C/c1c(-c2ccc(Cl)cc2)c(/C=N/OC)n2c1sc1ccccc12" = > 100 µM

* * *

The following compounds are shown together with reported TGI values.
system: SK-OV-3 ovarian; assay: NCI tumour cell line growth inhibition, 48 h

compound	data-value
O=C(NC1CCN(Cc2ccccc2)CC1)c1ccccc1I	43.6 µM
COC1(C)Cc2c(c(C)c(O)c3c2C(=O)C=C(Cl)C3=O)O1 (stereo unspecified)	> 100 µM
Nc1nc(Cl)nc2c1ncn2C1CCC(CO)O1 (stereo unspecified)	> 100 µM
COC(=O)/C(Br)=C/c1c[nH]c2ccc(Br)cc12	53.9 µM
COc1cc2c(cc1C)NC(=O)/C2=C/c1c(C)nc2sc(C)cn12	> 100 µM
O=C1/C(=C/c2cccc([N+](=O)[O-])c2)N=C(c2ccccc2)N1c1ccc2c(c1)Sc1cc(N3C(=O)/C(=C/c4cccc([N+](=O)[O-])c4)N=C3c3ccccc3)ccc1N2	30.9 µM
COc1ccc(/C=C2\CCCC3=C2N=C2SC=NN2C3c2ccc(OC)c(OC)c2)cc1OC (stereo unspecified)	> 100 µM
CC[C@@H]1C[C@@H](O)[C@@H]2[C@H](O)[C@H](O)CN2C1	> 100 µM

Assay SK-OV-3 ovarian, sample "Cc1c(C)c(C)c(CSC(=N)N)c(C)c1C" , TGI read: 34.2 µM

COc1ccc2c(c1)N(CCC1CCCCN1C)c1ccccc1S2 (stereo unspecified) tested on SK-OV-3 ovarian gave TGI: 31 µM

Taken from PubChem BioAssay (NCI).
